Give kinase still bound, per cent of control for every item shown.
Biological target: TXK (human)
Assay: KINOMEscan competition binding
Conditions: compound 10.0 µM

// worked examples, kinase still bound, per cent of control included
Q: Name the reported kinase still bound, per cent of control value associated with the compound CCC(=O)N1CCN(c2ccc(-n3c(=O)ccc4cnc5ccc(-c6cnc7ccccc7c6)cc5c43)cc2C(F)(F)F)CC1
Ans: 54%

Q: Name the reported kinase still bound, per cent of control value associated with the compound CC(C)n1nc(-c2cc3cc(O)ccc3[nH]2)c2c(N)ncnc21
Ans: 3%

Q: Name the reported kinase still bound, per cent of control value associated with the compound COC(=O)Nc1ccc(-c2nc(N3CCOCC3)c3cnn(C4CCN(C(=O)OC)CC4)c3n2)cc1
Ans: 92%

Next:
Q: Name the reported kinase still bound, per cent of control value associated with the compound COc1ccc(-c2ccc3c(N4CCOCC4)nc(N4C[C@@H](C)O[C@@H](C)C4)nc3n2)cc1CO
Ans: 100%
